Source: PubChem BioAssay AID1963858

Would you kindly list viability, T/C for each of these compounds?
- Tested on: HOP-62 multicell spheroids with HUVEC/MSC, viability
- assay.notes: Anticancer human tumor HOP-62 cell line growth inhibition [KRAS2];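 note: viability read after a week of compound exposure; 100% = DMSO vehicle-treated spheroids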
- condition.parameters: second compound 0.1 µM; first compound 0.1 µM; stronger effect = lower value
Provide only the numeric value, understood in %.

Asked: // returns reported viability, T/C for input CC(=O)OC12COC1CC(O)C1(C)C(=O)C(O)C3=C(C)C(OC(=O)C(O)C(NC(=O)OC(C)(C)C)c4ccccc4)CC(O)(C(OC(=O)c4ccccc4)C21)C3(C)C (centres undefined) + C=CC(=O)N1CCN(c2nc(OCC3CCCN3C)nc3c2CCN(c2cccc4cccc(C)c24)C3)CC1CC#N
Given back: 20.7

Asked: Consider the compound shown here: CC(C)n1nc(-c2ccc3oc(N)nc3c2)c2c(N)ncnc21 + CC1OCC2(CCN(c3cnc(Sc4ccnc(N)c4Cl)c(N)n3)CC2)C1N What is its recorded viability, T/C?
Given back: 8.07

Asked: // returns reported viability, T/C for input CC1COCCN1c1cc(-c2ccnn2C)c2ccnc(-c3ccn[nH]3)c2n1 (centres undefined) + C=CC(=O)N1CCN(c2nc(OCC3CCCN3C)nc3c2CCN(c2cccc4cccc(C)c24)C3)CC1CC#N
Given back: 22.7

Asked: I would be grateful if you could share the reported viability, T/C for COC(=O)c1ccc2c(C(=Nc3ccc(N(C)C(=O)CN4CCN(C)CC4)cc3)c3ccccc3)c(O)[nH]c2c1 + C=CC(=O)N1CCN(c2nc(OCC3CCCN3C)nc3c2CCN(c2cccc4cccc(C)c24)C3)CC1CC#N .
Given back: 32.6

Asked: # lookup: viability, T/C of CC(=O)OC12COC1CC(O)C1(C)C(=O)C(O)C3=C(C)C(OC(=O)C(O)C(NC(=O)OC(C)(C)C)c4ccccc4)CC(O)(C(OC(=O)c4ccccc4)C21)C3(C)C (centres undefined) + C=CC(=O)N1CCN(c2nc(=O)n(-c3c(C)ccnc3C(C)C)c3nc(-c4c(O)cccc4F)c(F)cc23)C(C)C1
Given back: 26.8

Asked: Request the reported viability, T/C associated with CN(C)C/C=C/C(=O)Nc1cc2c(Nc3ccc(F)c(Cl)c3)ncnc2cc1O[C@H]1CCOC1 + CC1OCC2(CCN(c3cnc(Sc4ccnc(N)c4Cl)c(N)n3)CC2)C1N
Given back: 91.3

Asked: Would you mind telling me what viability, T/C value was observed for CC1(C)CCC(CN2CCN(c3ccc(C(=O)NS(=O)(=O)c4ccc(NCC5CCOCC5)c([N+](=O)[O-])c4)c(Oc4cnc5[nH]ccc5c4)c3)CC2)=C(c2ccc(Cl)cc2)C1 + CNCc1ccccc1-c1csc(C(C)Nc2nc(C)nc3cc(OC)c(OC)cc23)c1 ?
Given back: 89.5

Asked: Can you share its viability, T/C? I mean this compound: CN(C)C/C=C/C(=O)Nc1cc2c(Nc3ccc(F)c(Cl)c3)ncnc2cc1O[C@H]1CCOC1 + COc1cc2nc(C)nc(NC(C)c3cc(N)cc(C(F)(F)F)c3)c2cc1OC1CCOC1
Given back: 97

Asked: Give the measured viability, T/C of CC(=O)OC12COC1CC(O)C1(C)C(=O)C(O)C3=C(C)C(OC(=O)C(O)C(NC(=O)OC(C)(C)C)c4ccccc4)CC(O)(C(OC(=O)c4ccccc4)C21)C3(C)C (centres undefined) + CC1OCC2(CCN(c3cnc(Sc4ccnc(N)c4Cl)c(N)n3)CC2)C1N .
Given back: 35.6
